- Test system: PC3 prostate cancer cells
- testProtocol: Cell Titer Glo proliferation assay in PC3
- Assay type: cell-based, human
- testParameters: Cell Titer Glo, 72 h; Mean ± SEM, n ≥ 3; read-out: IC50 values in prostate cancer cell lines, PC3
pIC50: −log10 of the molar value.

{"columns": ["molecule", "resultQualifier", "pIC50"],
 "data": [
  ["CCCCCCCCc1ccc(C2CCNC2CO)cc1 (centres unmarked) [Compound 7]", "=", 5.26],
  ["CCCCCCCCc1ccc(C2CCNC2CO)cc1 (centres unmarked) [Compound 8]", "=", 5.19],
  ["CCCCCCCCc1ccc([C@@H]2CCN[C@H]2CO)cc1.Cl", "=", 5.52],
  ["CCCCCCCCc1ccc([C@@H]2CCN[C@H]2C)cc1.Cl", "=", 5.39],
  ["CCCCCCCCc1ccc([C@@H]2CC(=O)N[C@@H]2CO)cc1", "<", 4.70],
  ["CCCCCCCCc1ccc([C@H]2CCN[C@@H]2COC)cc1.Cl", "=", 5.20],
  ["CCCCCCCCc1ccc([C@@H]2CCN[C@H]2COC)cc1.Cl", "=", 5.72],
  ["CCCCCCCCc1ccc([C@H]2C[C@H](CO)N[C@H]2CO)cc1", "=", 5.15],
  ["CCCCCCCCc1ccc([C@H]2CCN[C@@H]2C)cc1", "=", 5.36],
  ["CCCCCCCCc1ccc([C@@H]2C[C@@H](CO)N[C@@H]2CO)cc1", "=", 5.21],
  ["CCCCCCCCc1ccc([C@H]2CC(=O)N[C@H]2CO)cc1", "<", 4.70]
]}

----------
- experimentalSystem: S1P receptor 5 (Homo sapiens)
- Construct: expressed in transfected cells
- Sequence (Q9H228 whole entry): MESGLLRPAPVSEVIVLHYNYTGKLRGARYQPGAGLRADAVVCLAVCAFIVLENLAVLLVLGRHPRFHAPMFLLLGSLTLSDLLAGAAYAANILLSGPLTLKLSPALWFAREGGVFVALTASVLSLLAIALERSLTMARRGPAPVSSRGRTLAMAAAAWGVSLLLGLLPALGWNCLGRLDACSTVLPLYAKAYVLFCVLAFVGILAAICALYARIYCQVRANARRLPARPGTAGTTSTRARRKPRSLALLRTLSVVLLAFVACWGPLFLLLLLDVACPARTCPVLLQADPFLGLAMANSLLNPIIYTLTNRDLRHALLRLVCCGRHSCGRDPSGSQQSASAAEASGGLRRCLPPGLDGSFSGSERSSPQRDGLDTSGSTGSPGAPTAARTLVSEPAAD
- testProtocol: S1P receptor activation in CHO cells, S1P5
- Assay type: cell-based
- testParameters: CHO cells over-expressing human S1P5
parameterMeasured: activation of S1P receptor 5

{"columns": ["chemSmiles", "parameterMeasured", "valueMeasured"],
 "data": [
  ["CCCCCCCCc1ccc([C@@H]2CCN[C@H]2COC)cc1.Cl", "activation of S1P receptor 5", "not able to activate"],
  ["CCCCCCCCc1ccc([C@H]2CCN[C@@H]2COP(=O)(O)O)cc1", "activation of S1P receptor 5", "failed to activate"],
  ["CCCCCCCCc1ccc([C@@H]2CCN[C@H]2CO)cc1.Cl", "activation of S1P receptor 5", "failed to activate"],
  ["CCCCCCCCc1ccc([C@H]2CCN[C@@H]2CO)cc1.Cl", "activation of S1P receptor 5", "failed to activate"],
  ["CCCCCCCCc1ccc([C@@H]2CCN[C@H]2C)cc1.Cl", "activation of S1P receptor 5", "not able to activate"]
]}

----------
- experimentalSystem: S1P receptor 2 (Homo sapiens, UniProt O95136)
- Construct: expressed in transfected cells
- Sequence (O95136 whole entry): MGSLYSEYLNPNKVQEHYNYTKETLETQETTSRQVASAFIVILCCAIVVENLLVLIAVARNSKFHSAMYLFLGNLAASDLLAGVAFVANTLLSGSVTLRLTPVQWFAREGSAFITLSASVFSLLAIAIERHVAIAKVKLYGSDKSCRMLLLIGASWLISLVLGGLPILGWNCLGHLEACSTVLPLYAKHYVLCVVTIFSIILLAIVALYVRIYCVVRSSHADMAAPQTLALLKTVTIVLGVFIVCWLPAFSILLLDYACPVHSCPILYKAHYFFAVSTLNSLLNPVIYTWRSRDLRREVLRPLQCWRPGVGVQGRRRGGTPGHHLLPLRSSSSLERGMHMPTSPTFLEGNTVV
- testProtocol: S1P receptor activation in CHO cells, S1P2
- Assay type: cell-based
- testParameters: CHO cells over-expressing human S1P2

{"columns": ["compound", "experimentalSystem", "activation of S1P receptor 2"],
 "data": [
  ["CCCCCCCCc1ccc([C@@H]2CCN[C@H]2C)cc1.Cl [Compound 12]", "S1P receptor 2 (Homo sapiens, UniProt O95136)", "not able to activate"],
  ["CCCCCCCCc1ccc([C@H]2CCN[C@@H]2COP(=O)(O)O)cc1 [Compound 5-P]", "S1P receptor 2 (Homo sapiens, UniProt O95136)", "failed to activate"],
  ["CCCCCCCCc1ccc([C@H]2CCN[C@@H]2CO)cc1.Cl [Compound 5]", "S1P receptor 2 (Homo sapiens, UniProt O95136)", "failed to activate"],
  ["CCCCCCCCc1ccc([C@@H]2CCN[C@H]2COC)cc1.Cl [Compound 14]", "S1P receptor 2 (Homo sapiens, UniProt O95136)", "not able to activate"],
  ["CCCCCCCCc1ccc([C@@H]2CCN[C@H]2CO)cc1.Cl [Compound 6]", "S1P receptor 2 (Homo sapiens, UniProt O95136)", "failed to activate"]
]}
